# Test system: U251 CNS
# procedure-text: NCI tumour cell line growth inhibition, 48 h
metric: TGI

{"compound": "CC(=O)OCCC/C(=C/c1cc2ccccc2c2ccccc12)[N+](=O)[O-]", "TGI": "2.74 µM"}
{"compound": "CSc1ccc(NC(=O)CCl)cc1", "TGI": "> 10 µM"}
{"compound": "CCOC(=O)/C(=C/c1ccccc1)N(CC)CC", "TGI": "> 100 µM"}
{"compound": "O=C1c2ccccc2-c2c1c1ccc([N+](=O)[O-])cc1c(=O)n2CCN1CCOCC1", "TGI": "> 100 µM"}
{"compound": "CN(C(=O)C12C3(C(=O)O)C4C5(C(=O)O)C3C1(C(=O)O)C5C42C(=O)O)C(C)(C)C (configuration not stated)", "TGI": "> 100 µM"}

Here is another compound to look at.
For reference, reported TGI for COc1ccc(-n2nc(C(=O)c3ccccc3)c3nn4c(=O)cc(-c5ccccc5)nc4nc32)cc1 stands at > 100 µM

----------
# System: SF-295 CNS
# procedure-text: NCI tumour cell line growth inhibition, 48 h; in the data active = GI50 below about 0.43 µM; inactive = the rest
# valid calls are active, inactive; nothing else

Here are 4 molecules together with their reported answers.
{"molecule": "COc1cc2c3c(n(CCCN=[N+]=[N-])c(=O)c2cc1OC)-c1ccc(NC(C)=O)cc1C3=O", "assigned-class": "inactive"}
{"molecule": "NC1=C(/C(N)=N/O)C(c2ccccc2)c2ccc3ccccc3c2O1 (stereo not given)", "assigned-class": "active"}
{"molecule": "CN1CCN(c2ccc(NC(=O)c3cncnc3Nc3ccc4c(ccn4Cc4cccc(F)c4)c3)cc2)CC1", "assigned-class": "inactive"}
{"molecule": "COc1ccc(/C=N/C2=NNC(C)(c3ccccc3O)N2C(Cc2c[nH]c3ccccc23)C(=O)O)cc1 (stereo not given)", "assigned-class": "inactive"}

Any idea what this test logged for C=CC(=O)N1CCC(CNc2ncnc(N)c2-c2ccc(Oc3ccccc3)cc2)CC1 ?
inactive

----------
# System: SNB-75 CNS
# procedure-text: NCI tumour cell line growth inhibition, 48 h
metric: TGI (µM)
Report the figure in µM without appending any unit label.

Sample answers from the record:
{"compound": "CC(NC(=O)c1ccc(OP(=O)(OCc2ccc([N+](=O)[O-])o2)N(C)CCCCCl)cc1)c1ccc(OCC2CCCCC2)c(C(N)=O)c1 (stereo unspecified)", "TGI / µM": 25.3}
{"compound": "COc1ccccc1N1CCN(CC(O)Cn2c(=O)c3c(OC)nc(C)cc3c(=O)n2-c2ccccc2)CC1 (stereo unspecified)", "TGI / µM": 37.6}

Shift focus to the following entry.
The value of TGI measured for the compound COc1cc([N+](=O)[O-])cc2c1NC(=O)C2(C)SC (stereo unspecified) turned out to be 90.6

----------
In this section we review reported TGI values for a set of compounds.
# System: MDA-N
# procedure-text: NCI tumour cell line growth inhibition, 48 h

Here are 2 compounds together with their reported answers.
{"entry-smiles": "NC(=O)/C=C/c1c[nH]c2nccnc12", "TGI": "> 75.2 µM"}
{"entry-smiles": "Cc1ccc(S(=O)(=O)Nc2cc(=O)[nH]c3c2CCC3)cc1", "TGI": "> 100 µM"}

Field TGI (MDA-N), entry CCCCCCCCCCCCCC/C(C(=O)O)=C(\C)C(=O)O : > 100 µM
